target: VEGFR2 (Homo sapiens (Human)); assay: VEGFR2 in vitro kinase inhibitory activity assay (TRF, Flt3 substrate); format: biochemical; settings: 1 h; at 3 μM; read-out: VEGFR2 % I
Sequence (P35968 20-1356): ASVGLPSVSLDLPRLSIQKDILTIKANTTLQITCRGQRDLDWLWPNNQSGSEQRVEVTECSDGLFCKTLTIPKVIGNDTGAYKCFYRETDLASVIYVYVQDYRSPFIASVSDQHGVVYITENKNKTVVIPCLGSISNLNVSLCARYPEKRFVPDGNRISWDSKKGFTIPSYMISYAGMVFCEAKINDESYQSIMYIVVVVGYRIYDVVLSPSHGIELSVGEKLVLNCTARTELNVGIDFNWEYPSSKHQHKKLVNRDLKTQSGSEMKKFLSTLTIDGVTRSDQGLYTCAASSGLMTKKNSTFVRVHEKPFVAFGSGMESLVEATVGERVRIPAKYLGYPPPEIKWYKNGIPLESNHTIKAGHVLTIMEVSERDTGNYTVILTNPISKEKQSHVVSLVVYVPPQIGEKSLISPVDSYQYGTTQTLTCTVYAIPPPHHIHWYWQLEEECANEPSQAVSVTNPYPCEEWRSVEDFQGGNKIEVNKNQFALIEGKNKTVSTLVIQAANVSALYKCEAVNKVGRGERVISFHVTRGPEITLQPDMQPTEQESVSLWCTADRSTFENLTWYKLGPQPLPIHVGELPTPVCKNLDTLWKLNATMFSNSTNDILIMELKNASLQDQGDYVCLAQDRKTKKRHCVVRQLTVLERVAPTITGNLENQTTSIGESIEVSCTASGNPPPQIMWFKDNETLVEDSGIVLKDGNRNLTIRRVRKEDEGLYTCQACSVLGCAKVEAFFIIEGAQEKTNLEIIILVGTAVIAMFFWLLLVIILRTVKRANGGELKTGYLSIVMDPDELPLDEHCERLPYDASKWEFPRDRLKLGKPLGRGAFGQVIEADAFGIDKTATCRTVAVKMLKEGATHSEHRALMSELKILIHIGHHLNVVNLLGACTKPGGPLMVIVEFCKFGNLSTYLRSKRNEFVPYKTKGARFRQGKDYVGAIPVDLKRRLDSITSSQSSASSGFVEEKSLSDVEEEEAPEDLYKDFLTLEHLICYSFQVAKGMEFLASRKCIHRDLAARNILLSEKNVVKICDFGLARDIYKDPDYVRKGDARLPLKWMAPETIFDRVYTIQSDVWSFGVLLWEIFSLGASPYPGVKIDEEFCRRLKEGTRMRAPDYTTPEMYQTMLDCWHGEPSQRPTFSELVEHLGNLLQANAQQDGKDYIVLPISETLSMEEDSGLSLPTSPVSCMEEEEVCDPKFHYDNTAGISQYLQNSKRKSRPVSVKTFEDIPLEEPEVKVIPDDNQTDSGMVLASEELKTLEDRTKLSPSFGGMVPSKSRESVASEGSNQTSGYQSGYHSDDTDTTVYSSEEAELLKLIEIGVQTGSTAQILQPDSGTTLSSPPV
PROPERTY_MEASURED: inhibition at 3 µM (%)

molecule="COCCOc1cc(NC(=O)NCC(F)(F)F)cc(-c2cnc3cc(-c4ncc(F)c(N)n4)ccn23)c1 [Compound 285]" system_tested="VEGFR2 (Homo sapiens (Human))" property_measured="inhibition at 3 µM" measured_number=51
molecule="COc1cc(NC(=O)NCC(F)(F)F)cc(-c2cnc3cc(-c4ncccn4)ccn23)c1 [Compound 304]" system_tested="VEGFR2 (Homo sapiens (Human))" property_measured="inhibition at 3 µM" measured_number=59
molecule="CCCCCOC(=O)Nc1nc(-c2ccn3c(-c4cccc(NC(=O)NCC(F)(F)F)c4)cnc3c2)ncc1F [Compound 331]" system_tested="VEGFR2 (Homo sapiens (Human))" property_measured="inhibition at 3 µM" measured_number=43
molecule="CCCCOC(=O)Nc1nc(-c2ccn3c(-c4cccc(NC(=O)NCC(F)(F)F)c4)cnc3c2)ncc1F [Compound 314]" system_tested="VEGFR2 (Homo sapiens (Human))" property_measured="inhibition at 3 µM" measured_number=62
